// provenance: the supplement of paper PMC12669032

Below, each entry is listed with its recorded growth AUC.
- Tested on: Streptococcus salivarius
- test-method-notes: growth AUC relative to DMSO control (median of replicates) (fraction); higher = more growth (less inhibition), active = hit call of the paper
- experimental-conditions: 20 µM; 24 h

compound | growth AUC
Clc1c(Cl)c(Cl)c(Cl)c(Cl)c1Cl | 0.999
CCOP(=S)(OCC)SCSP(=S)(OCC)OCC | 0.958
CNC(=O)Oc1cc(C)c(S(C)=O)c(C)c1 (stereo not given) | 1.01
C/C(=N\NC(=O)Nc1cc(F)cc(F)c1)c1ncccc1C(=O)[O-].[Na+] | 0.988
O=S(=O)(c1ccc(Cl)cc1)c1cc(Cl)c(Cl)cc1Cl | 0.999

* * *

- Test system: Roseburia intestinalis
- test-method-notes: growth AUC relative to DMSO control (median of replicates) (fraction); higher = more growth (less inhibition), active = hit call of the paper
- experimental-conditions: 20 µM; 24 h
measured-attribute: growth AUC

molecule | measured-attribute | result
O=C(O)C(Cl)Cl | growth AUC | 1.02
O=C1OCC2C1C1(Cl)C(Cl)=C(Cl)C2(Cl)C1(Cl)Cl (stereo not drawn) | growth AUC | 0.975
CCc1cc(C)cc(CC)c1-c1c(OC(=O)C(C)(C)C)n2n(c1=O)CCOCC2 | growth AUC | 0.981
Cc1ccccc1CO[C@@H]1C[C@@]2(C(C)C)CC[C@]1(C)O2 (mixture of isomers) | growth AUC | 0.978
CP(=O)(O)CCC(N)C(=O)[O-].[NH4+] (stereo not drawn) | growth AUC | 1.06
Clc1ccc(C(c2ccc(Cl)cc2)C(Cl)Cl)cc1 | growth AUC | 0.923
ClC1=C(Cl)[C@]2(Cl)[C@@H]3[C@H]4C[C@H]([C@@H]5O[C@H]45)[C@@H]3[C@@]1(Cl)C2(Cl)Cl | growth AUC | 0.909
O=S(=O)(Oc1ccc(Cl)cc1)c1ccc(Cl)cc1 | growth AUC | 0.948
O=c1[nH]c(Cl)c(Cl)cc1Cl | growth AUC | 0.993
CCNS(=O)(=O)C(F)(F)C(F)(F)C(F)(F)C(F)(F)C(F)(F)C(F)(F)C(F)(F)C(F)(F)F | growth AUC | 1.03
CN1CSC(=S)N(C)C1 | growth AUC | 1.03
O=C(O)c1ccc(Cl)nc1 | growth AUC | 1.16
C[N+](C)(C)CCCl.[Cl-] | growth AUC | 0.994
Cc1cccc(C)c1N(Cn1cccn1)C(=O)CCl | growth AUC | 0.935
C#CCN1CC(=O)N(COC(=O)C2C(C=C(C)C)C2(C)C)C1=O (mixture of isomers) | growth AUC | 1.04
CC(C)(COCc1cccc(Oc2ccccc2)c1)c1ccc(OC(F)(F)Br)cc1 | growth AUC | 1.05
O=[N+]([O-])NC1=NCOCN1Cc1cnc(Cl)s1 | growth AUC | 0.941
O=C(O)COc1ccc(Cl)cc1Cl | growth AUC | 1.03

* * *

Below, each entry is listed with its recorded growth AUC.
- System: Odoribacter splanchnicus
- test-method-notes: growth AUC relative to DMSO control (median of replicates) (fraction); higher = more growth (less inhibition), active = hit call of the paper
- experimental-conditions: 20 µM; 24 h

smiles-entry | growth AUC
Clc1ccc(Cl)c(Cl)c1 | 0.983
C[C@@H](Oc1ccc(Oc2ncc(C(F)(F)F)cc2Cl)cc1)C(=O)O | 0.98
Cc1cc(C(F)(C(F)(F)F)C(F)(F)F)ccc1NC(=O)c1cccc(I)c1C(=O)NC(C)(C)CS(C)(=O)=O | 0.994

* * *

- System: Bacteroides uniformis
- test-method-notes: growth AUC relative to DMSO control (median of replicates) (fraction); higher = more growth (less inhibition), active = hit call of the paper
- experimental-conditions: 20 µM; 24 h

compound | growth AUC
Nc1nc(N)nc(NC2CC2)n1 | 0.991
CCOP(=S)(OCC)Oc1cc(C)nc(C(C)C)n1 | 1.02
Oc1c(Cl)ccc(Cl)c1Cl | 0.981
CCS(=O)Cc1ccccc1OC(=O)NC (configuration not stated) | 0.945
CCNc1nc(NCC)nc(SC)n1 | 1
COP(=O)(OC)O/C(C)=C/C(=O)N(C)C | 1.02
CCOP(=S)(OCC)SCn1c(=O)oc2cc(Cl)ccc21 | 0.927
O=C(O)C(F)(F)C(F)(F)C(F)(F)C(F)(F)C(F)(F)C(F)(F)C(F)(F)F | 0.963
CCOP(=S)(OCC)Oc1ccc([N+](=O)[O-])cc1 | 0.959
O=[N+]([O-])c1ccc2ccc3cccc4ccc1c2c34 | 0.877
CNC(=O)Oc1ccccc1C(C)C | 1.01
c1cc2ccc3cccc4ccc(c1)c2c34 | 1.02
O=[N+]([O-])c1ccc(Oc2ccc(Cl)cc2Cl)cc1 | 0.931
COc1cnc(OC)n2nc(NS(=O)(=O)c3c(OCC(F)F)cccc3C(F)(F)F)nc12 | 1.01
O=C(OC1CCCCC1)c1ccccc1C(=O)OC1CCCCC1 | 0.985
COC(=O)Nc1nc2ccccc2[nH]1 | 0.988
O=c1oc2ccccc2c(O)c1C1CC(c2ccc(-c3ccc(Br)cc3)cc2)Cc2ccccc21 (configuration not stated) | 0.86
CSc1nnc(C(C)(C)C)c(=O)n1N | 1.02
CCCC(Cn1cncn1)c1ccc(Cl)cc1Cl (configuration not stated) | 0.941
CCN(CC)c1c([N+](=O)[O-])cc(C(F)(F)F)c(N)c1[N+](=O)[O-] | 0.972
Cc1cnc(C2=NC(C)(C(C)C)C(=O)N2)c(C(=O)O)c1 (configuration not stated) | 1.01
O=[N+]([O-])c1c(Cl)c(Cl)c(Cl)c(Cl)c1Cl | 0.917
CC(C)=CC1C(C(=O)OCc2cccc(Oc3ccccc3)c2)C1(C)C (mixture of isomers) | 0.991
OC(c1ccc(Cl)cc1)(c1cncnc1)c1ccccc1Cl (configuration not stated) | 0.632
O=P(O)(O)CCCl | 1.03
CN(C)C(=O)C(c1ccccc1)c1ccccc1 | 1.05
C=CCN=C=S | 1.02
COP(=S)(OC)Oc1ccc(S(C)(=O)=O)c(C)c1 | 0.964
CON(C)C(=O)Nc1ccc(Br)c(Cl)c1 | 0.944
CC(=O)O.CC(=O)O.CC(=O)O.NC(N)=NCCCCCCCCNCCCCCCCCN=C(N)N | 0.158
Cc1cc(Cl)ccc1OCC(=O)O | 1
N#Cc1nn(-c2c(Cl)cc(C(F)(F)F)cc2Cl)c(N)c1S(=O)C(F)(F)F (configuration not stated) | 0.895
O=C(O)C(F)(F)C(F)(F)C(F)(F)C(F)(F)C(F)(F)C(F)(F)C(F)(F)C(F)(F)F | 1.02
CC(C1CC1)C(O)(Cn1cncn1)c1ccc(Cl)cc1 (mixture of isomers) | 0.929
O=C1CCc2cccc3c2N1CC3 | 0.98
C=CCC1=C(C)C(OC(=O)[C@@H]2[C@@H](C=C(C)C)C2(C)C)CC1=O (some centres not stated) | 1.01
CC(C)(C)c1ccc(CCOc2ncnc3ccccc23)cc1 | 0.944
CC(C)(C)c1ccc(CSc2cnn(C(C)(C)C)c(=O)c2Cl)cc1 | 0.986
O=C(Nc1ccccc1)Nc1ccnc(Cl)c1 | 0.886
C[N+](C)(C)CCCl.[Cl-] | 1.01
CCOP(=S)(OCC)Oc1cc(Cl)c(Br)cc1Cl | 0.966
COCc1c(F)c(F)c(COC(=O)[C@@H]2[C@@H](C=C(Cl)Cl)C2(C)C)c(F)c1F | 0.969

* * *

Below, each entry is listed with its recorded growth AUC.
- System: Streptococcus salivarius
- test-method-notes: growth AUC relative to DMSO control (median of replicates) (fraction); higher = more growth (less inhibition), active = hit call of the paper
- experimental-conditions: 20 µM; 24 h

molecule | growth AUC
Cc1occc1C(=O)Nc1ccccc1 | 0.995
COP(=S)(OC)Oc1ccc(C#N)cc1 | 0.959
O=C(NC(=O)c1c(F)cccc1F)Nc1cc(Cl)c(OC(F)(F)C(F)F)c(Cl)c1 | 0.962
COP(=O)(OC)OC(Br)C(Cl)(Cl)Br (stereo unspecified) | 0.956
CCCCN(CCCC)SN(C)C(=O)Oc1cccc2c1OC(C)(C)C2 | 1
Clc1ccc(Cl)c(Cl)c1 | 1.01

* * *

- Test system: Fusobacterium nucleatum subsp. animalis
- test-method-notes: growth AUC relative to DMSO control (median of replicates) (fraction); higher = more growth (less inhibition), active = hit call of the paper
- experimental-conditions: 20 µM; 24 h
measured-attribute: growth AUC

compound | result
Clc1c(Cl)c(Cl)c(Cl)c(Cl)c1Cl | 0.98 (inactive)
CNC(=O)/C(=N\OC)c1ccccc1Oc1ccccc1 | 0.974 (inactive)
CCCCC(CC)COC(=O)c1ccccc1C(=O)OCC(CC)CCCC (stereo not drawn) | 1 (inactive)
